# TEST_SYSTEM: T1, AAV8
# T1 construct: also called adeno-associated virus serotype 8
# PROCEDURE_SUMMARY: SPR, AAV on CM5 chip;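 note: surface plasmon resonance with AAV amine-coupled to the chip as ligand, nanobodies injected as analyte over a concentration series, rate constants and affinity fitted from binding curves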
MEASUREMENT_NAME: koff (s⁻¹)
All answers are understood in s⁻¹, so give the number only.

Task: Assign koff to the following record: A4-049 (VHH) VHH: VQLQESGGGLVQPGGSLRLSCAASGSMFSINTMGWYRQAPGKQRELVAAVTRGGNTNYAGSVKGRFTISRDNAKNTVYLQMNSLRPEDTAVYYCHVDEVRQSSWTTSNLWGQGTQVTVSS
Result: 0.00056

Task: Let me know recorded koff for A4-017 (VHH) VHH: VQLQESGGGLVQPGGSLRLSCAASGSIFSINLMGWYRQAPGKQRELVATITRGGNTNYAGSVKGRFTISRDNAKNTVYLQMNSLRPEDTAVYYCHVDEVRQSSWTTSNLWGQGTQVTVSS , thanks.
Result: 0.0002

Task: Given A4-020 (VHH) VHH: VQLQESGGGLVQAGGSLRLSCAASGSTFSINTMGWYRQAPGKQRELVATITRGGNTNYADSVKGRFTISRDNAKNTVYLQMNSLRPEDTAVYYCHVDEVRQSSWTTSNLWGQGTQVTVSS , respond with its koff.
Result: 5.66e-05

Task: Give koff for the following binder: A4-050 (VHH) VHH: VQLQESGGGLVQPGGSLRLSCAASGSSFVINTMGWYRQAPGKQRELVAAVTRGGSTNYADSVKGRFTISRDNAKNTVYLQMNSLRPEDTAVYYCHVDEVRQSSWTTSNLWGQGTQVTVSS
Result: 0.00043
